test: soluble on expression in E. coli; label from the status in PepcDB or PDB records
readout: soluble on expression in E. coli

Below are worked cases with known answers.
| recordSequence | readout | reportedValue |
| --- | --- | --- |
| MPQFETHRLVKHSPDRMYDLVADVEKYPQFLPLCEALSVRSRKERDGKVLLVADMTVGYKAIRETFTTQVLLNPAERAIDVKYIDGPFRYLDNRWRFEAAENGGTTIHFFIDYEFKNRLLGAVMGSMFDRAFRMFAEAFETRADKIYTDPALEHHHHHH | soluble on expression in E. coli | soluble |
| MGSDKIHHHHHHMKVLHIFPSAFLGGSELCAIESIESLQKTGVENHVILPAEGAVINRLENLSVSYKIIQHNWWMSSKPWKTYLKVFMLKGFYSSAASIREYIKNNGIDVVITHSIVIPSGALGARLTNTPHVWYLHEYGDLDHQLKFEYGKSFSLNLINKLSKKIIVNSDALKKHFSKKLPAAKINRLYYSVNYPEFTPLTEKPSGELLLCMVGRIAKGKNQLVALKALALLKQEQIFPQLVFVGGADPDYLKLLEAYIKTHELEKQIAFAGQTDRPWDFVMRSQAVVVGSAMEAFGRVTVEAMKAGRIPIVSDTGAGPELITHNENGFLFDPEKEKQLAEIIKQIWLGTDFTEMTVQAKQYALAHFNSKLHGHELLKILTGLV | soluble on expression in E. coli | not soluble |
| ASAFSESEETFVRIVAQWAGKEISRRRNQKRANAERERLRQIIDTIPQQVFVKDADGTYTLANKAAAAAHGVAVERLEGATHDEFALSDEQRDFKSDDAAVIENGESVHIEEDGLVEADGSSHTVQTDIVPIEIAS | soluble on expression in E. coli | not soluble |
| MIIEFEEKLLDLIDAQVVNASSDELFAGGYLRGHISLSAAQCEEEGITELDVLKQRIEQSLEAARSELSPADRAIVAELWQQLAAQA | soluble on expression in E. coli | not soluble |
| MAHHHHHHMACDFELPLFAAPCSEVLSTQMSVVDGKMAEKSDKAKRTARASACMIRKGFFSHFPQAILTSPESGIKTAPHPWSNASLMMAADAFSVGLMLRLRLFSIICRNPSPKPTAAGGRFAGYVFCTIPRLSADNCRRTALLKKSWSYKRMPKMAAKYKKRDAVTSISAMVKELSAGMARTDRRNFSLRDTVW | soluble on expression in E. coli | not soluble |

So for "MAHHHHHHMHADGMHTEQDEFTLSQYVQRTPLARPLGLKIGARVMLRTNLAPGLVNGSLGTVVAFRKLEMDQLPRYIVGNAQREESILQYADYLKYEQGFEVPLVPVLDFNGRQEVIPPVTHFVGGLPNTHFYSMGIIALPLSLAYAFTVHKVQGLTLVGRVHLELSRMWPCEHLLYVAMSRVRNPEQLSVSSFHPSLVRAAADCLLFDDSLPPVTQVRIAPYMVAATWRRSSERRKKTVLRKRLEAYVKRRQQRLQSEASKGDIRAEIRLLEEKMLKQRVRASAAHRKRRSTPGKLGAVAGSPMV" , the logged soluble on expression in E. coli turned out to be not soluble

So for "MATQDDAHLAELKKKRTFRKFMYRGVDLDQLLDMSREQFTKLLPCRMRRRLDRGLKRKHLALIAKVQKAKKAAGVLEKPATVKTHLRDMIILPELVGGVIGIYNGKVFNQTEIKPEMIGFYLGEFAISYKPVKHGRPGIGATHSSRFIPLK" , the logged soluble on expression in E. coli turned out to be not soluble

So for "MKEIYLPLHHGKAPHWLLSRMKKLAKPIVKLIVLEYGEREFLERLSNPIFFQSLSNVLGFDWNSSGVTTVLTGVLKAVINNEEFDIRIAGGKGGNALKTPEEIMNYSEQIGADGEKLVEFSRLAAKADNAALIDGYSLYHHAVIFTPRYFTVIQQGMNETERMARRYHWNVYSSVPELENVHEGIITERRENEVVNMLSDISRDAKRLCVDIVRDGSFRRDYERMISVLRWRKGLRVPKKLDWKVVERAYNLQPERFEELLLIRGFGRETIRALALVAEIIYNTEYDKTDPAKYCFAVGGKDGVPFPVRRDIYDEIIEFMRETVKQAEIGDFEKKKMLERLSRYGCDCQERRD" , the logged soluble on expression in E. coli turned out to be soluble
